This collection of values is drawn from ChEMBL document CHEMBL4346657.

System: COLO 205
test.description: Antiproliferative activity against human COLO205 cells assessed as growth inhibition after 48 hrs by sulforhodamine B assay
Format: functional
assay.setup: COLO 205, 48 h
Measured GI50 accompanies every entry in the list below.
result.type: GI50 (nM)

N=C(N)c1ccc(-c2ccc(-c3ccc(F)cc3)s2)s1 = 1320
COc1ccc2cc(-c3ccc(-c4ccc(C(=N)N)s4)s3)ccc2c1 = 2040
N=C(N)c1ccc(-c2ccc(-c3ccc(Cl)cc3)s2)s1 = 1440
COc1cc(OC)cc(-c2ccc(-c3ccc(C(=N)N)o3)o2)c1 = 1840
COc1ccc(-c2ccc(-c3ccc(C(=N)N)o3)o2)cc1 = 1250
